Assay: Permeability test in MDCK cell model
Format: in vitro ADME
Conditions: dog, pH 7.4, concentration 2.00 μM, 120 minutes, A to B, read-out: Papp A to B
Experimental: The MDCK cell model was used to evaluate the permeability of the compounds, the LC-MS/MS method was used to determine the concentration of the substance to be tested, and the apparent permeability coefficient (Papp) and efflux ratio were calculated [Efflux ratio=Papp(B→A)/Papp(A→B)]. […] Excel 2013 was used to calculate Papp values and Papp ratio of B side→A side to A side→B side, and the recovery rates of each Control Compound and the compound to be tested were calculated. […]
Property name: Papp A→B at 120 min, 2 μM (×10⁻⁶ cm/s)
Record the value in ×10⁻⁶ cm/s, omitting the unit from your answer.

- Compound: "CC[C@@]1(O)C(=O)OCc2c1cc1n(c2=O)Cc2c-1nc1cc(F)c(C)c3c1c2[C@@H](NC(=O)C[C@H](C)O)CC3 [Control Compound 4, reference compound]"
  Unit tag: "×10⁻⁶ cm/s"
  Papp A→B at 120 min, 2 μM: 0.24

Exercise: Consider the compound CC[C@@]1(O)C(=O)OCc2c1cc1n(c2=O)Cc2c-1nc1cc(F)c(C)cc1c2CN [Control Compound 1, reference compound] and give its measured Papp A→B at 120 min, 2 μM.
Key: 1.31

Exercise: Consider the compound CC[C@@]1(O)C(=O)OCc2c1cc1n(c2=O)Cc2c-1nc1cc(F)c(C)cc1c2CNC(=O)CO [Control Compound 2, reference compound] and give its measured Papp A→B at 120 min, 2 μM.
Key: 0.01

Exercise: Consider the compound CC[C@@]1(O)C(=O)OCc2c1cc1n(c2=O)Cc2c-1nc1cc(F)c(Cl)cc1c2CN [Compound 1-1] and give its measured Papp A→B at 120 min, 2 μM.
Key: 2.59

Exercise: Consider the compound CC[C@@]1(O)C(=O)OCc2c1cc1n(c2=O)Cc2c-1nc1cc(F)c(C)c3c1c2[C@@H](NC(=O)CO)CC3 [Control Compound 3, reference compound] and give its measured Papp A→B at 120 min, 2 μM.
Key: 0.31

---

assay: Permeability test in MDCK cell model; assay type: in vitro ADME; conditions: dog, pH 7.4
Property name: efflux ratio at 120 min, 2 μM
Please give only the number in your answer, with no unit.

Exercise: Consider the molecule CC[C@@]1(O)C(=O)OCc2c1cc1n(c2=O)Cc2c-1nc1cc(F)c(Cl)c3c1c2[C@@H](NC(=O)C[C@H](C)O)CC3 [Compound 2-25] and give its measured efflux ratio at 120 min, 2 μM.
Key: 4.57

---

system: NCI-N87 cells; experiment: Inhibitory effect on NCI-N87 cell proliferation; assay type: cell-based; details: Homo sapiens; NCI-N87, 72 h incubation, Cell Counting-Lite 2.0; read-out: IC50 (nM), inhibitory activity on NCI-N87 cell proliferation
Property name: IC50 (nM)
Record the value in nM, omitting the unit from your answer.

- Molecule: "C=CC(O)C(=O)NCc1c2c(nc3cc(F)c(Cl)cc13)-c1cc3c(c(=O)n1C2)COC(=O)[C@]3(O)CC (some centres unmarked)"
  Unit tag: "nM"
  Value: 7.27

Attention now turns to another entry.
Exercise: Consider the molecule CC[C@@]1(O)C(=O)OCc2c1cc1n(c2=O)Cc2c-1nc1cc(F)c(Cl)cc1c2CNC(=O)C(O)C(F)(F)F (some centres unmarked) and give its measured IC50.
Key: 5.69

---

assay: Permeability test in MDCK cell model; type: in vitro ADME; conditions: dog, pH 7.4
Property name: Papp B→A at 120 min, 2 μM (×10⁻⁶ cm/s)
Record the value in ×10⁻⁶ cm/s, omitting the unit from your answer.

Here is how some compounds turned out for Papp B→A at 120 min, 2 μM.
- Compound: "CC[C@@]1(O)C(=O)OCc2c1cc1n(c2=O)Cc2c-1nc1cc(F)c(Cl)cc1c2CNC(=O)C(O)C(F)(F)F (stereo partly shown) [Compound 2-19]"
  Unit tag: "×10⁻⁶ cm/s"
  Value: 0.73
- Compound: "C=CC(O)C(=O)NCc1c2c(nc3cc(F)c(Cl)cc13)-c1cc3c(c(=O)n1C2)COC(=O)[C@]3(O)CC (stereo partly shown) [Compound 2-22]"
  Unit tag: "×10⁻⁶ cm/s"
  Value: 1.59
- Compound: "CC[C@@]1(O)C(=O)OCc2c1cc1n(c2=O)Cc2c-1nc1cc(F)c(Cl)cc1c2CNC(=O)CO [Compound 2-1]"
  Unit tag: "×10⁻⁶ cm/s"
  Value: 0.42

Attention now turns to another entry.
Exercise: Consider the compound CC[C@@]1(O)C(=O)OCc2c1cc1n(c2=O)Cc2c-1nc1cc(F)c(Cl)c3c1c2[C@@H](NC(=O)C[C@H](C)O)CC3 [Compound 2-25] and give its measured Papp B→A at 120 min, 2 μM.
Key: 3.56

---

experiment: Permeability test in MDCK cell model; type: in vitro ADME; conditions: dog, pH 7.4, 2.00 μM, Papp(B→A)/Papp(A→B), absence of P-gp inhibitor, read-out: Efflux ratio (ERa)
Measured efflux ratio at 120 min, 2 μM values are reported for all entries that follow.
Please give only the number in your answer, with no unit.

Here is how some compounds turned out for efflux ratio at 120 min, 2 μM.
- Compound: "CC[C@@]1(O)C(=O)OCc2c1cc1n(c2=O)Cc2c-1nc1cc(F)c(C)cc1c2CN [Control Compound 1, reference compound]"
  efflux ratio at 120 min, 2 μM: 2.06
- Compound: "CC[C@@]1(O)C(=O)OCc2c1cc1n(c2=O)Cc2c-1nc1cc(F)c(C)c3c1c2[C@@H](NC(=O)CO)CC3 [Control Compound 3, reference compound]"
  efflux ratio at 120 min, 2 μM: 15.2
- Compound: "CC[C@@]1(O)C(=O)OCc2c1cc1n(c2=O)Cc2c-1nc1cc(F)c(Cl)cc1c2CNC(=O)C(O)C(F)(F)F (some centres unmarked) [Compound 2-19]"
  efflux ratio at 120 min, 2 μM: 1.48

Exercise: Consider the compound CC[C@@]1(O)C(=O)OCc2c1cc1n(c2=O)Cc2c-1nc1cc(F)c(Cl)cc1c2CNC(=O)CO [Compound 2-1] and give its measured efflux ratio at 120 min, 2 μM.
Key: 0.81

Exercise: Consider the compound CC[C@@]1(O)C(=O)OCc2c1cc1n(c2=O)Cc2c-1nc1cc(F)c(Cl)cc1c2CN [Compound 1-1] and give its measured efflux ratio at 120 min, 2 μM.
Key: 1.41

Exercise: Consider the compound CC[C@@]1(O)C(=O)OCc2c1cc1n(c2=O)Cc2c-1nc1cc(F)c(C)c3c1c2[C@@H](NC(=O)C[C@H](C)O)CC3 [Control Compound 4, reference compound] and give its measured efflux ratio at 120 min, 2 μM.
Key: 21.7

Exercise: Consider the compound C=CC(O)C(=O)NCc1c2c(nc3cc(F)c(Cl)cc13)-c1cc3c(c(=O)n1C2)COC(=O)[C@]3(O)CC (some centres unmarked) [Compound 2-22] and give its measured efflux ratio at 120 min, 2 μM.
Key: 2.24

Exercise: Consider the compound CC[C@@]1(O)C(=O)OCc2c1cc1n(c2=O)Cc2c-1nc1cc(F)c(C)cc1c2CNC(=O)CO [Control Compound 2, reference compound] and give its measured efflux ratio at 120 min, 2 μM.
Key: 28

---

tested on: MDCK cells; experiment: Permeability test in MDCK cell model; assay type: in vitro ADME; details: 2.00 μM
Property name: Permeability class according to the Papp(A→B) results

- Compound: "CC[C@@]1(O)C(=O)OCc2c1cc1n(c2=O)Cc2c-1nc1cc(F)c(C)c3c1c2[C@@H](NC(=O)CO)CC3 [Control Compound 3, reference compound]"
  System: "MDCK cells"
  Value: "low-permeability"
- Compound: "CC[C@@]1(O)C(=O)OCc2c1cc1n(c2=O)Cc2c-1nc1cc(F)c(C)c3c1c2[C@@H](NC(=O)C[C@H](C)O)CC3 [Control Compound 4, reference compound]"
  System: "MDCK cells"
  Value: "low-permeability"
- Compound: "CC[C@@]1(O)C(=O)OCc2c1cc1n(c2=O)Cc2c-1nc1cc(F)c(C)cc1c2CNC(=O)CO [Control Compound 2, reference compound]"
  System: "MDCK cells"
  Value: "low-permeability"

---

System: MDCK cells
Experiment: Permeability test in MDCK cell model
Format: in vitro ADME
Description: The MDCK cell model was used to evaluate the permeability of the compounds, the LC-MS/MS method was used to determine the concentration of the substance to be tested, and the apparent permeability coefficient (Papp) and efflux ratio were calculated [Efflux ratio=Papp(B→A)/Papp(A→B)]. […] Excel 2013 was used to calculate Papp values and Papp ratio of B side→A side to A side→B side, and the recovery rates of each Control Compound and the compound to be tested were calculated. […]
Property name: Permeability class according to the Papp(A→B) results

- Molecule: "CC[C@@]1(O)C(=O)OCc2c1cc1n(c2=O)Cc2c-1nc1cc(F)c(Cl)cc1c2CNC(=O)CO [Compound 2-1]"
  Value: "medium-permeability"
- Molecule: "C=CC(O)C(=O)NCc1c2c(nc3cc(F)c(Cl)cc13)-c1cc3c(c(=O)n1C2)COC(=O)[C@]3(O)CC (stereo partly shown) [Compound 2-22]"
  Value: "medium-permeability"
- Molecule: "CC[C@@]1(O)C(=O)OCc2c1cc1n(c2=O)Cc2c-1nc1cc(F)c(Cl)c3c1c2[C@@H](NC(=O)C[C@H](C)O)CC3 [Compound 2-25]"
  Value: "medium-permeability"
